- Tested on: MDCK
- Test Protocol: Cytotoxicity against MDCK cells incubated for 72 hrs by MTT assay
- Type: cell-based
- Assay Context: Canis lupus familiaris
Property Name: pIC50
Notebook: values listed as pIC50 are -log10 of the concentration (mol/L).

For the compound CC(C)C[C@H](N)C(=O)O[C@H]1CC[C@]2(C)[C@H]3C(=O)C=C4[C@@H]5C[C@@](C)(C(=O)OCc6ccccc6)CC[C@]5(C)CC[C@@]4(C)[C@]3(C)CC[C@H]2C1(C)C , give its reported pIC50. 4.71

Give reported pIC50 value for CNCC(=O)N[C@H]1CC[C@]2(C)[C@H]3C(=O)C=C4[C@@H]5C[C@@](C)(C(=O)OCc6ccccc6)CC[C@]5(C)CC[C@@]4(C)[C@]3(C)CC[C@H]2C1(C)C 5.50

Determine from records and report pIC50 for CC[C@H](C)[C@H](N)C(=O)N[C@H]1CC[C@]2(C)[C@H]3C(=O)C=C4[C@@H]5C[C@@](C)(C(=O)OCc6ccccc6)CC[C@]5(C)CC[C@@]4(C)[C@]3(C)CC[C@H]2C1(C)C 5.38

// Input: CC1(C)[C@@H](NC(=O)[C@@H]2CCCN2)CC[C@]2(C)[C@H]3C(=O)C=C4[C@@H]5C[C@@](C)(C(=O)OCc6ccccc6)CC[C@]5(C)CC[C@@]4(C)[C@]3(C)CC[C@@H]12 . Output its pIC50 only. 5.60

Please supply the value of reported pIC50 for the item CC[C@H](C)[C@H](N)C(=O)O[C@H]1CC[C@]2(C)[C@H]3C(=O)C=C4[C@@H]5C[C@@](C)(C(=O)OCc6ccccc6)CC[C@]5(C)CC[C@@]4(C)[C@]3(C)CC[C@H]2C1(C)C 5.05

====

- Test system: MDCK
- Test Protocol: Cytotoxicity against MDCK cells incubated for 72 hrs by MTT assay
- Type: cell-based
- Assay Context: Canis lupus familiaris
pIC50: −log10 of the molar value.
Property Name: pIC50

CN(CC(=O)N[C@H]1CC[C@]2(C)[C@H]3C(=O)C=C4[C@@H]5C[C@@](C)(C(=O)OCc6ccccc6)CC[C@]5(C)CC[C@@]4(C)[C@]3(C)CC[C@H]2C1(C)C)C(=O)OC(C)(C)C
< 4.40
C[C@H](N)C(=O)N[C@H]1CC[C@]2(C)[C@H]3C(=O)C=C4[C@@H]5C[C@@](C)(C(=O)OCc6ccccc6)CC[C@]5(C)CC[C@@]4(C)[C@]3(C)CC[C@H]2C1(C)C
5.33

// below: pIC50 requested for another molecule
Return pIC50 (reported value) for this molecule: CC(C)C[C@H](NC(=O)OC(C)(C)C)C(=O)N[C@H]1CC[C@]2(C)[C@H]3C(=O)C=C4[C@@H]5C[C@@](C)(C(=O)OCc6ccccc6)CC[C@]5(C)CC[C@@]4(C)[C@]3(C)CC[C@H]2C1(C)C < 4.40

====

- Test system: HeLa
- Test Protocol: Antiproliferative activity against human HeLa cells incubated for 72 hrs by MTT assay
- Type: functional, cell-based
Measured IC50 accompanies every entry in the list below.
Give just the numeric value; µM need not be written.

CC[C@H](C)[C@H](N)C(=O)O[C@H]1CC[C@]2(C)[C@H]3C(=O)C=C4[C@@H]5C[C@@](C)(C(=O)OCc6ccccc6)CC[C@]5(C)CC[C@@]4(C)[C@]3(C)CC[C@H]2C1(C)C
9.65
CNCC(=O)N[C@H]1CC[C@]2(C)[C@H]3C(=O)C=C4[C@@H]5C[C@@](C)(C(=O)OCc6ccccc6)CC[C@]5(C)CC[C@@]4(C)[C@]3(C)CC[C@H]2C1(C)C
3.2

Write down IC50 measured for item CC1(C)[C@@H](NC(=O)CN)CC[C@]2(C)[C@H]3C(=O)C=C4[C@@H]5C[C@@](C)(C(=O)OCc6ccccc6)CC[C@]5(C)CC[C@@]4(C)[C@]3(C)CC[C@@H]12 3.01

Input C[C@H](N)C(=O)O[C@H]1CC[C@]2(C)[C@H]3C(=O)C=C4[C@@H]5C[C@@](C)(C(=O)OCc6ccccc6)CC[C@]5(C)CC[C@@]4(C)[C@]3(C)CC[C@H]2C1(C)C , output reported IC50. 5

Answer with reported IC50 of CC1(C)[C@@H](NC(=O)[C@@H](N)Cc2ccccc2)CC[C@]2(C)[C@H]3C(=O)C=C4[C@@H]5C[C@@](C)(C(=O)OCc6ccccc6)CC[C@]5(C)CC[C@@]4(C)[C@]3(C)CC[C@@H]12 2.24

Identify measured IC50 associated with CC1(C)[C@@H](OC(=O)[C@@H]2CCCN2)CC[C@]2(C)[C@H]3C(=O)C=C4[C@@H]5C[C@@](C)(C(=O)OCc6ccccc6)CC[C@]5(C)CC[C@@]4(C)[C@]3(C)CC[C@@H]12 9.05

Please list IC50 recorded for the molecule CC1(C)[C@@H](OC(=O)[C@@H](N)Cc2ccccc2)CC[C@]2(C)[C@H]3C(=O)C=C4[C@@H]5C[C@@](C)(C(=O)OCc6ccccc6)CC[C@]5(C)CC[C@@]4(C)[C@]3(C)CC[C@@H]12 18.8

Quick one: give measured IC50 for CNCC(=O)O[C@H]1CC[C@]2(C)[C@H]3C(=O)C=C4[C@@H]5C[C@@](C)(C(=O)OCc6ccccc6)CC[C@]5(C)CC[C@@]4(C)[C@]3(C)CC[C@H]2C1(C)C 8

====

pIC50 values, listed per item
- System: MDCK
- Test Protocol: Cytotoxicity against MDCK cells incubated for 72 hrs by MTT assay
- Format: cell-based
- Assay Context: Canis lupus familiaris
pIC50: −log10 of the molar value.

CC1(C)[C@@H](NC(=O)[C@@H](N)Cc2ccccc2)CC[C@]2(C)[C@H]3C(=O)C=C4[C@@H]5C[C@@](C)(C(=O)OCc6ccccc6)CC[C@]5(C)CC[C@@]4(C)[C@]3(C)CC[C@@H]12
5.30

Give the measured pIC50 for CN(CC(=O)O[C@H]1CC[C@]2(C)[C@H]3C(=O)C=C4[C@@H]5C[C@@](C)(C(=O)OCc6ccccc6)CC[C@]5(C)CC[C@@]4(C)[C@]3(C)CC[C@H]2C1(C)C)C(=O)OC(C)(C)C < 4.40

Please list pIC50 recorded for the compound CSCC[C@H](NC(=O)OC(C)(C)C)C(=O)N[C@H]1CC[C@]2(C)[C@H]3C(=O)C=C4[C@@H]5C[C@@](C)(C(=O)OCc6ccccc6)CC[C@]5(C)CC[C@@]4(C)[C@]3(C)CC[C@H]2C1(C)C < 4.40

====

- Test system: MCF7
- Test Protocol: Antiproliferative activity against human MCF7 cells incubated for 72 hrs by MTT assay
- Assay type: functional, cell-based
- Assay Context: MCF7, 72 h
pIC50: −log10 of the molar value.
Entries and their pIC50 values follow.

Worked cases, answers included:
CSCC[C@H](N)C(=O)O[C@H]1CC[C@]2(C)[C@H]3C(=O)C=C4[C@@H]5C[C@@](C)(C(=O)OCc6ccccc6)CC[C@]5(C)CC[C@@]4(C)[C@]3(C)CC[C@H]2C1(C)C
5.09
CN(CC(=O)O[C@H]1CC[C@]2(C)[C@H]3C(=O)C=C4[C@@H]5C[C@@](C)(C(=O)OCc6ccccc6)CC[C@]5(C)CC[C@@]4(C)[C@]3(C)CC[C@H]2C1(C)C)C(=O)OC(C)(C)C
< 4.40
C[C@H](NC(=O)OC(C)(C)C)C(=O)O[C@H]1CC[C@]2(C)[C@H]3C(=O)C=C4[C@@H]5C[C@@](C)(C(=O)OCc6ccccc6)CC[C@]5(C)CC[C@@]4(C)[C@]3(C)CC[C@H]2C1(C)C
< 4.40
CC1(C)[C@@H](OC(=O)[C@@H]2CCCN2)CC[C@]2(C)[C@H]3C(=O)C=C4[C@@H]5C[C@@](C)(C(=O)OCc6ccccc6)CC[C@]5(C)CC[C@@]4(C)[C@]3(C)CC[C@@H]12
5.28
CNCC(=O)O[C@H]1CC[C@]2(C)[C@H]3C(=O)C=C4[C@@H]5C[C@@](C)(C(=O)OCc6ccccc6)CC[C@]5(C)CC[C@@]4(C)[C@]3(C)CC[C@H]2C1(C)C
5.41
CC(C)(C)OC(=O)N[C@@H](Cc1ccccc1)C(=O)N[C@H]1CC[C@]2(C)[C@H]3C(=O)C=C4[C@@H]5C[C@@](C)(C(=O)OCc6ccccc6)CC[C@]5(C)CC[C@@]4(C)[C@]3(C)CC[C@H]2C1(C)C
< 4.40

Please report the measured pIC50 for CC(C)(C)OC(=O)N1CCC[C@H]1C(=O)N[C@H]1CC[C@]2(C)[C@H]3C(=O)C=C4[C@@H]5C[C@@](C)(C(=O)OCc6ccccc6)CC[C@]5(C)CC[C@@]4(C)[C@]3(C)CC[C@H]2C1(C)C < 4.40

====

- Tested on: HeLa
- Test Protocol: Antiproliferative activity against human HeLa cells incubated for 72 hrs by MTT assay
- Type: functional, cell-based
List of pIC50 values.
Scale note: pIC50 = -log10(concentration in M).

Example cases with answers are listed next.
CSCC[C@H](N)C(=O)N[C@H]1CC[C@]2(C)[C@H]3C(=O)C=C4[C@@H]5C[C@@](C)(C(=O)OCc6ccccc6)CC[C@]5(C)CC[C@@]4(C)[C@]3(C)CC[C@H]2C1(C)C
5.51
CSCC[C@H](N)C(=O)O[C@H]1CC[C@]2(C)[C@H]3C(=O)C=C4[C@@H]5C[C@@](C)(C(=O)OCc6ccccc6)CC[C@]5(C)CC[C@@]4(C)[C@]3(C)CC[C@H]2C1(C)C
4.98
C[C@H](N)C(=O)N[C@H]1CC[C@]2(C)[C@H]3C(=O)C=C4[C@@H]5C[C@@](C)(C(=O)OCc6ccccc6)CC[C@]5(C)CC[C@@]4(C)[C@]3(C)CC[C@H]2C1(C)C
5.62

Let me know recorded pIC50 for CC[C@H](C)[C@H](N)C(=O)N[C@H]1CC[C@]2(C)[C@H]3C(=O)C=C4[C@@H]5C[C@@](C)(C(=O)OCc6ccccc6)CC[C@]5(C)CC[C@@]4(C)[C@]3(C)CC[C@H]2C1(C)C , thanks. 5.53

Determine its reported pIC50: CC(C)C[C@H](N)C(=O)N[C@H]1CC[C@]2(C)[C@H]3C(=O)C=C4[C@@H]5C[C@@](C)(C(=O)OCc6ccccc6)CC[C@]5(C)CC[C@@]4(C)[C@]3(C)CC[C@H]2C1(C)C 5.64

Let me know recorded pIC50 for CC(C)C[C@H](N)C(=O)O[C@H]1CC[C@]2(C)[C@H]3C(=O)C=C4[C@@H]5C[C@@](C)(C(=O)OCc6ccccc6)CC[C@]5(C)CC[C@@]4(C)[C@]3(C)CC[C@H]2C1(C)C , thanks. 4.37

Please give measured pIC50 of the following entry: CC1(C)[C@@H](NC(=O)[C@@H]2CCCN2)CC[C@]2(C)[C@H]3C(=O)C=C4[C@@H]5C[C@@](C)(C(=O)OCc6ccccc6)CC[C@]5(C)CC[C@@]4(C)[C@]3(C)CC[C@@H]12 5.66

Report pIC50, nothing else, for this compound: CC1(C)[C@@H](OC(=O)CN)CC[C@]2(C)[C@H]3C(=O)C=C4[C@@H]5C[C@@](C)(C(=O)OCc6ccccc6)CC[C@]5(C)CC[C@@]4(C)[C@]3(C)CC[C@@H]12 5.48
